system: T1, LRRC7, Q96NW7
T1 sequence (Q96NW7 1440-1537, limits assumed, looked up): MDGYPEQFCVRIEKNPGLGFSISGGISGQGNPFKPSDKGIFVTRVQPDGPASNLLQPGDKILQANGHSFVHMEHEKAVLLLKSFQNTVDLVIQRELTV
testProtocol: holdup assay
Set-up: key: below the threshold = too weak to quantify, mostly under pKd 3.1 to 4
testSettings: plain residues with an end cap or a label only (N-terminal biotin on a linker: ttds)

[
  {
    "binder": "LCALPKVTTV [AGMAT, Q9BSE5]",
    "pKd": 3.63
  },
  {
    "binder": "DPRNTQTSQI [ABRAXAS2, Q15018]",
    "pKd": "below the threshold"
  },
  {
    "binder": "LDSQIQETSI [MAP4, P27816]",
    "pKd": "below the threshold"
  },
  {
    "binder": "GGPKEEESPV [SLC16A1, P53985]",
    "pKd": "below the threshold"
  }
]
